experiment: Blood concentrations of Amy22 after oral gavage to mice (LC-MS/MS, non-compartmental analysis); assay type: in vivo, mouse; conditions: mouse, whole blood, po; blood, male C57BL/6N mice, 140 mg/kg per os in 0.5% CMC
experimental_endpoint: Tmax (h)
Report as a plain number; the unit h is understood.

What measured Tmax goes with `O=C(Nc1c(C(=O)O)cnn1-c1ccccc1)c1cc2nc(-c3ccco3)cc(C(F)(F)Cl)n2n1` ?
1.5

====

assay: MTT cell viability assay, H015.19 cells (Myc-/-); format: cell-based, rat; details: rat, H015.19 cells (Myc-/- derivatives of TGR-1); Amy22 0.5 μM, day 3, MTT, average ± S.E.M
experimental_endpoint: viability at 3 days, 0.5 μM
Hey, just the number and the unit after it is fine.

What measured viability at 3 days, 0.5 μM goes with O=C(Nc1c(C(=O)O)cnn1-c1ccccc1)c1cc2nc(-c3ccco3)cc(C(F)(F)Cl)n2n1 [Amy22] ?
84.7%

====

experiment: MTT cell viability assay, H015.19 cells (Myc-/-); format: cell-based, rat; details: rat, H015.19 cells (Myc-/- derivatives of TGR-1); Amy22 10 μM, day 3, MTT, average ± S.E.M
experimental_endpoint: viability at 3 days, 10 μM (%)
Report as a plain number; the unit % is understood.

What measured viability at 3 days, 10 μM goes with O=C(Nc1c(C(=O)O)cnn1-c1ccccc1)c1cc2nc(-c3ccco3)cc(C(F)(F)Cl)n2n1 [Amy22] ?
74.6

====

test: Blood concentrations of Amy22 after oral gavage to mice (LC-MS/MS, non-compartmental analysis); type: in vivo, mouse; conditions: mouse, whole blood, po; blood, male C57BL/6N mice, 140 mg/kg per os in 0.5% CMC
experimental_endpoint: AUC(0-inf) (µM·h)
Report as a plain number; the unit µM·h is understood.

What measured AUC(0-inf) goes with `O=C(Nc1c(C(=O)O)cnn1-c1ccccc1)c1cc2nc(-c3ccco3)cc(C(F)(F)Cl)n2n1` ?
35.4

====

Assay: MTT cell viability assay, H015.19 cells (Myc-/-)
Format: cell-based, rat
Settings: rat, H015.19 cells (Myc-/- derivatives of TGR-1); Amy22 25 μM, day 3, MTT, average ± S.E.M
Procedure: To evaluate the in vitro activity of the compound having the formula (II) (Amy22), the sibling cell lines TGR-1 and H015.19 were used. […] The TGR-1 and H015.19 cells were grown in DMEM supplemented with 10% FBS. […] Cell viability (sextuplicates) was measured on day 3 by using a standard MTT (Thiazolyl Blue Tetrazolium Bromide) colorimetric assay (Mosmann, 1983). […] The IC50 for H015.19 cells was calculated by extrapolation.
experimental_endpoint: viability at 3 days, 25 μM (%)
Report as a plain number; the unit % is understood.

What measured viability at 3 days, 25 μM goes with `O=C(Nc1c(C(=O)O)cnn1-c1ccccc1)c1cc2nc(-c3ccco3)cc(C(F)(F)Cl)n2n1` ?
70.8

====

experiment: MTT cell viability assay, H015.19 cells (Myc-/-); format: cell-based, rat; conditions: rat, H015.19 cells (Myc-/- derivatives of TGR-1); Amy22 1 μM, day 3, MTT, average ± S.E.M
experimental_endpoint: viability at 3 days, 1 μM
Hey, just the number and the unit after it is fine.

What measured viability at 3 days, 1 μM goes with `O=C(Nc1c(C(=O)O)cnn1-c1ccccc1)c1cc2nc(-c3ccco3)cc(C(F)(F)Cl)n2n1` ?
80%

====

test: MTT cell viability assay, H015.19 cells (Myc-/-); assay type: cell-based, rat; settings: rat, H015.19 cells (Myc-/- derivatives of TGR-1); Amy22 100 μM, day 3, MTT, average ± S.E.M
experimental_endpoint: viability at 3 days, 100 μM (%)
Report as a plain number; the unit % is understood.

What measured viability at 3 days, 100 μM goes with O=C(Nc1c(C(=O)O)cnn1-c1ccccc1)c1cc2nc(-c3ccco3)cc(C(F)(F)Cl)n2n1 [Amy22] ?
61.1

====

assay: MTT cell viability assay, H015.19 cells (Myc-/-); type: cell-based, rat; details: rat, H015.19 cells (Myc-/- derivatives of TGR-1); Amy22 0.1 μM, day 3, MTT, average ± S.E.M
experimental_endpoint: viability at 3 days, 0.1 μM
Hey, just the number and the unit after it is fine.

What measured viability at 3 days, 0.1 μM goes with O=C(Nc1c(C(=O)O)cnn1-c1ccccc1)c1cc2nc(-c3ccco3)cc(C(F)(F)Cl)n2n1 [Amy22] ?
86.3%

====

Test: MTT cell viability assay, H015.19 cells (Myc-/-)
Assay type: cell-based, rat
Conditions: rat, H015.19 cells (Myc-/- derivatives of TGR-1); Amy22 5 μM, day 3, MTT, average ± S.E.M
Procedure: To evaluate the in vitro activity of the compound having the formula (II) (Amy22), the sibling cell lines TGR-1 and H015.19 were used. […] The TGR-1 and H015.19 cells were grown in DMEM supplemented with 10% FBS. […] Cell viability (sextuplicates) was measured on day 3 by using a standard MTT (Thiazolyl Blue Tetrazolium Bromide) colorimetric assay (Mosmann, 1983). […] The IC50 for H015.19 cells was calculated by extrapolation.
experimental_endpoint: viability at 3 days, 5 μM (%)
Report as a plain number; the unit % is understood.

What measured viability at 3 days, 5 μM goes with `O=C(Nc1c(C(=O)O)cnn1-c1ccccc1)c1cc2nc(-c3ccco3)cc(C(F)(F)Cl)n2n1` ?
75.3

====

assay: Blood concentrations of Amy22 after oral gavage to mice (LC-MS/MS, non-compartmental analysis); format: in vivo, mouse; conditions: mouse, whole blood, po; blood, male C57BL/6N mice, 140 mg/kg per os in 0.5% CMC
experimental_endpoint: Cmax (µM)
Report as a plain number; the unit µM is understood.

What measured Cmax goes with `O=C(Nc1c(C(=O)O)cnn1-c1ccccc1)c1cc2nc(-c3ccco3)cc(C(F)(F)Cl)n2n1` ?
6.2
